System: Nakaseomyces glabratus
protocolDetails: Antifungal activity against Candida glabrata
Format: functional, organism-based
experimentalConditions: Nakaseomyces glabratus; read-out: IC50
propertyName: pIC50
In plain terms, pIC50 is the concentration in mol/L turned into minus its base-10 logarithm.

Reference set, count: 2
molecule: CCCC#CC#CC#CCCCCCC(O)C(=O)O (configuration not stated)
propertyName: pIC50
value: 3.30
--
molecule: CCCCC/C=C\C#CC#CCCCCCC(O)C(=O)O (configuration not stated)
propertyName: pIC50
value: 3.30

Now turn to the next molecule.
[ask] Tell me measured pIC50 for CCCCCC/C=C\C#CC#CCCCCC(O)C(=O)OC (configuration not stated) please.
[reply] 3.00
